- Tested on: Nicotiana tabacum cv. (BY4) photomixotrophic cells
- assay.explanation: TTC analysis of growth inhibition, tobacco photomixotrophic cells
- Assay type: cell-based
Please go through the items and note down their growth inhibition activities (IC50) to Nicotiana tabacum cv. (BY4) photomixotrophic cells.
Entry rule: numbers only, all in ppm.

Notebook: CCC(=O)Nc1ccc(Cl)c(Cl)c1 [Propanil] , growth inhibition activities (IC50) to Nicotiana tabacum cv. (BY4) photomixotrophic cells read as 5.83

Notebook: COc1cc(OC)nc(Oc2cccc(Oc3nc(OC)cc(OC)n3)c2C(=O)ON=C(c2ccccc2)c2ccccc2)n1 [Pyribenzoxim] , growth inhibition activities (IC50) to Nicotiana tabacum cv. (BY4) photomixotrophic cells read as 0.0026

Notebook: CC(Oc1ccc2ccccc2c1)C(=O)Nc1ccccc1 (stereo not shown) [Naproanilide] , growth inhibition activities (IC50) to Nicotiana tabacum cv. (BY4) photomixotrophic cells read as 0.0019

Notebook: CSC(=O)c1c(C(F)F)nc(C(F)(F)F)c(C(=O)SC)c1CC(C)C [Dithiopyr] , growth inhibition activities (IC50) to Nicotiana tabacum cv. (BY4) photomixotrophic cells read as 0.141

Notebook: CCOC(=O)c1cnn(C)c1S(=O)(=O)NC(=O)Nc1nc(OC)cc(OC)n1 [Prazolsulfuron-ethyl] , growth inhibition activities (IC50) to Nicotiana tabacum cv. (BY4) photomixotrophic cells read as 0.001

Notebook: O=C(Nc1ccc(F)cc1F)c1cccnc1Oc1cccc(C(F)(F)F)c1 [Diflufenican] , growth inhibition activities (IC50) to Nicotiana tabacum cv. (BY4) photomixotrophic cells read as 4.67

Notebook: CC(C)Oc1cc(-n2nc(C(C)(C)C)oc2=O)c(Cl)cc1Cl [Oxadiazone] , growth inhibition activities (IC50) to Nicotiana tabacum cv. (BY4) photomixotrophic cells read as 0.39

Notebook: COc1cc(Oc2ccc(Cl)cc2Cl)ccc1[N+](=O)[O-] [Chloromethoxynil] , growth inhibition activities (IC50) to Nicotiana tabacum cv. (BY4) photomixotrophic cells read as 0.193

Notebook: COCC(=O)OC(c1ncccc1S(=O)(=O)NC(=O)Nc1nc(OC)cc(OC)n1)C(C)F (stereo not shown) [LGC-42153] , growth inhibition activities (IC50) to Nicotiana tabacum cv. (BY4) photomixotrophic cells read as 0.0022

Notebook: CC(C)C1(C)N=C(c2ncccc2C(=O)O)NC1=O (stereo not shown) [Amazapyr] , growth inhibition activities (IC50) to Nicotiana tabacum cv. (BY4) photomixotrophic cells read as 0.018

Notebook: CCNc1nc(Cl)nc(NC(C)C)n1 [Atrazine] , growth inhibition activities (IC50) to Nicotiana tabacum cv. (BY4) photomixotrophic cells read as 0.18

Notebook: CCOC(=O)[C@@H](C)Oc1ccc(Oc2nc3ccc(Cl)cc3o2)cc1 [Phenoxapro-P-ethyl] , growth inhibition activities (IC50) to Nicotiana tabacum cv. (BY4) photomixotrophic cells read as 4.58

---

- Tested on: Marchantia polymorpha L. photomixotrophic cells
- assay.explanation: TTC high throughput screening of cell growth in microwell plate
- Assay type: cell-based
- run.parameters: Marchantia polymorpha; natural compounds, final concentration 1 ppm; + inhibiting, − promoting
Please go through the items and note down their inhibition at 1 ppm.
Entry rule: numbers only, all in %.

Notebook: `O=c1oc2ccccc2c(O)c1Cc1c(O)c2ccccc2oc1=O` , inhibition at 1 ppm read as -31

Notebook: `O=C(O)/C=C/c1ccc(O)cc1` , inhibition at 1 ppm read as 17

Notebook: `COc1cc(C(=O)O)cc(OC)c1O` , inhibition at 1 ppm read as 16

Notebook: `COc1cc2ccc(=O)oc2cc1O` , inhibition at 1 ppm read as 16

Notebook: Oc1ccc(O)cc1 [Hydroquinone] , inhibition at 1 ppm read as 15

Notebook: `O=C(O)/C=C/c1ccc(O)c(O)c1` , inhibition at 1 ppm read as 21

Notebook: `O=c1ccc2ccccc2o1` , inhibition at 1 ppm read as 33

Notebook: `COc1cc(C(=O)O)ccc1O` , inhibition at 1 ppm read as 10

Notebook: `COc1cc(/C=C/C(=O)O)ccc1O` , inhibition at 1 ppm read as -35

Notebook: `O=c1ccc2ccc(O)cc2o1` , inhibition at 1 ppm read as 6

Notebook: `CCOC(=O)c1ccc(O)c(O)c1` , inhibition at 1 ppm read as 22

Notebook: `O=C(O)c1cc(O)c(O)c(O)c1` , inhibition at 1 ppm read as 8

Notebook: `O=C1COc2ccccc21` , inhibition at 1 ppm read as -18

Notebook: `O=C(O)/C=C/c1ccccc1O` , inhibition at 1 ppm read as 32

Recorded values, source patent US20050176584A1.
